Data origin: patent US20230151068A1

// reported enrichment score for each item listed
target: biotinylated His-Avi-TEAD (194-411) (UniProt P28347); assay: SSM screen, enrichment after two rounds of sorting

Known enrichment score results, listed for orientation:
Task: # query: enrichment score of entry GSPDEYIERAKECCKKGDNQCCLRYFEESGDPNVMLICLFCP (designed binder) [I17N variant of SEQ ID NO: 1]
Output: 0.47

Task: # query: enrichment score of entry GSPDEYIERAKECCKKGHIQCCLRYFEESGDPNVMLICLFCP (designed binder) [D16H variant of SEQ ID NO: 1]
Output: -4.55

***
Task: # query: enrichment score of entry GSPDLYIERAKECCKKGDIQCCLRYFEESGDPNVMLICLFCP (designed binder) [E03L variant of SEQ ID NO: 1]
Output: 0.32
